Listed here: items and their measured GI50.
Test system: HOP-62
protocol: NCI tumour cell line growth inhibition, 48 h
The source made the active and inactive calls. Rule as the data show it: active = GI50 up to about 1.1 µM and inactive = higher.
reported property: GI50

compound | reported property | data value
COC(=O)/C=C1\CCCN1CCc1cc2c(cc1CC#N)OCO2 | GI50 | 52.4 µM (inactive)
COc1ccccc1NC(=O)C1=C(C)NC(C)=C(C(=O)Nc2ccccc2OC)C1c1ccc(N(C)C)cc1 | GI50 | 22.3 µM (inactive)
COC(=O)C1(C)CCc2c(ccc3ccccc23)C1=O (centres undefined) | GI50 | 78.7 µM (inactive)
CSc1nc2c3ccccc3ccn2c1C(=O)N/N=C/c1ccccc1 | GI50 | 13 µM (inactive)
CCCN(CCCC(NC(C)=O)C(=O)NCc1ccccc1)C(=O)NCCCl (centres undefined) | GI50 | > 100 µM (inactive)
COc1cc2c3cc1Oc1c(OC)c(OC)cc4c1C(Cc1ccc(O)c(c1)Oc1ccc(cc1)CC3N(C)CC2)N(C)CC4 (centres undefined) | GI50 | 64.6 µM (inactive)
O=S(=O)(c1ccccc1)C1CN(Cc2ccccc2)CCN(Cc2ccccc2)C1 | GI50 | > 76.2 µM (inactive)
C(#C[C@@]12CCC[C@@H]1NCO2)c1ccc2c(c1)OCO2 | GI50 | 87.3 µM (inactive)
O=C(Nc1ccc(Cl)cc1)c1cc(S(=O)(=O)NC2=Nc3ccc(Cl)cc3C(c3ccccc3)N2)c(SSc2cc(Cl)c(C(=O)Nc3ccc(Cl)cc3)cc2S(=O)(=O)NC2=Nc3ccc(Cl)cc3C(c3ccccc3)N2)cc1Cl (centres undefined) | GI50 | > 100 µM (inactive)

====

Test system: U-251
protocol: NCI tumour cell line growth inhibition, 48 h
The source made the active and inactive calls. Rule as the data show it: active = GI50 up to about 1.1 µM and inactive = higher.
Listed here: items and their measured GI50.
reported property: GI50

molecule | system | data value
CC(C)NCC(O)c1ccc(OCc2ccccc2)c(OCc2ccccc2)c1-c1ccccc1 (stereo not given) | U-251 | 1.67 µM (inactive)
CCOC(=O)C(Cc1cccn1C(=O)OC(C)(C)C)[N+](=O)[O-] (stereo not given) | U-251 | 20.8 µM (inactive)
CCC(=O)C1(c2ccccc2)CCN(C)CC1 | U-251 | > 100 µM (inactive)
CC(=O)O[C@@H]1[C@H](C(C)C)[C@@H](OC(C)=O)C/C(C)=C/CC[C@]2(C)O[C@@H]12 | U-251 | > 100 µM (inactive)
O=C1C(Cl)=C(N2CCC[C@@H]2CO)C(=O)c2c(O)ccc(O)c21 | U-251 | 1.83 µM (inactive)

====

Test system: SF-295
protocol: NCI tumour cell line growth inhibition, 48 h
The source made the active and inactive calls. No stated cut-off is given here; in the data, active = GI50 up to about 1.1 µM and inactive = higher.
reported property: GI50

smiles text | reported property | data value
Cc1ccc(N)cc1.O=S(=O)(O)/C(=C\c1ccccc1)c1ccccc1 | GI50 | > 100 µM (inactive)
O=C(O)[C@@H]1C[C@@H](O)CN1C(=O)OCc1ccccc1 | GI50 | > 100 µM (inactive)
CCc1cc2c(c3c1CCCC3=O)CC1(C2)Cc2cc(CC)c3c(c2C1)C(=O)CCC3 | GI50 | > 100 µM (inactive)
Nc1nc[n+](Cc2ccccc2)c2ncn(Cc3ccccc3)c12 | GI50 | 63.8 µM (inactive)
C=CCN(C(=O)CNC(=O)C(F)(F)F)c1cc(OCc2ccccc2)c2c(c1)c(C)cn2S(=O)(=O)c1ccccc1 | GI50 | 23 µM (inactive)
